- Target: DNA-dependent protein kinase (DNA-PK) (Homo sapiens, UniProt P78527)
- Construct: endogenous in cells; host or cells: Jurkat, clone E6-1 (ATCC TIB-152) cell lysate
- Sequence (P78527 whole entry): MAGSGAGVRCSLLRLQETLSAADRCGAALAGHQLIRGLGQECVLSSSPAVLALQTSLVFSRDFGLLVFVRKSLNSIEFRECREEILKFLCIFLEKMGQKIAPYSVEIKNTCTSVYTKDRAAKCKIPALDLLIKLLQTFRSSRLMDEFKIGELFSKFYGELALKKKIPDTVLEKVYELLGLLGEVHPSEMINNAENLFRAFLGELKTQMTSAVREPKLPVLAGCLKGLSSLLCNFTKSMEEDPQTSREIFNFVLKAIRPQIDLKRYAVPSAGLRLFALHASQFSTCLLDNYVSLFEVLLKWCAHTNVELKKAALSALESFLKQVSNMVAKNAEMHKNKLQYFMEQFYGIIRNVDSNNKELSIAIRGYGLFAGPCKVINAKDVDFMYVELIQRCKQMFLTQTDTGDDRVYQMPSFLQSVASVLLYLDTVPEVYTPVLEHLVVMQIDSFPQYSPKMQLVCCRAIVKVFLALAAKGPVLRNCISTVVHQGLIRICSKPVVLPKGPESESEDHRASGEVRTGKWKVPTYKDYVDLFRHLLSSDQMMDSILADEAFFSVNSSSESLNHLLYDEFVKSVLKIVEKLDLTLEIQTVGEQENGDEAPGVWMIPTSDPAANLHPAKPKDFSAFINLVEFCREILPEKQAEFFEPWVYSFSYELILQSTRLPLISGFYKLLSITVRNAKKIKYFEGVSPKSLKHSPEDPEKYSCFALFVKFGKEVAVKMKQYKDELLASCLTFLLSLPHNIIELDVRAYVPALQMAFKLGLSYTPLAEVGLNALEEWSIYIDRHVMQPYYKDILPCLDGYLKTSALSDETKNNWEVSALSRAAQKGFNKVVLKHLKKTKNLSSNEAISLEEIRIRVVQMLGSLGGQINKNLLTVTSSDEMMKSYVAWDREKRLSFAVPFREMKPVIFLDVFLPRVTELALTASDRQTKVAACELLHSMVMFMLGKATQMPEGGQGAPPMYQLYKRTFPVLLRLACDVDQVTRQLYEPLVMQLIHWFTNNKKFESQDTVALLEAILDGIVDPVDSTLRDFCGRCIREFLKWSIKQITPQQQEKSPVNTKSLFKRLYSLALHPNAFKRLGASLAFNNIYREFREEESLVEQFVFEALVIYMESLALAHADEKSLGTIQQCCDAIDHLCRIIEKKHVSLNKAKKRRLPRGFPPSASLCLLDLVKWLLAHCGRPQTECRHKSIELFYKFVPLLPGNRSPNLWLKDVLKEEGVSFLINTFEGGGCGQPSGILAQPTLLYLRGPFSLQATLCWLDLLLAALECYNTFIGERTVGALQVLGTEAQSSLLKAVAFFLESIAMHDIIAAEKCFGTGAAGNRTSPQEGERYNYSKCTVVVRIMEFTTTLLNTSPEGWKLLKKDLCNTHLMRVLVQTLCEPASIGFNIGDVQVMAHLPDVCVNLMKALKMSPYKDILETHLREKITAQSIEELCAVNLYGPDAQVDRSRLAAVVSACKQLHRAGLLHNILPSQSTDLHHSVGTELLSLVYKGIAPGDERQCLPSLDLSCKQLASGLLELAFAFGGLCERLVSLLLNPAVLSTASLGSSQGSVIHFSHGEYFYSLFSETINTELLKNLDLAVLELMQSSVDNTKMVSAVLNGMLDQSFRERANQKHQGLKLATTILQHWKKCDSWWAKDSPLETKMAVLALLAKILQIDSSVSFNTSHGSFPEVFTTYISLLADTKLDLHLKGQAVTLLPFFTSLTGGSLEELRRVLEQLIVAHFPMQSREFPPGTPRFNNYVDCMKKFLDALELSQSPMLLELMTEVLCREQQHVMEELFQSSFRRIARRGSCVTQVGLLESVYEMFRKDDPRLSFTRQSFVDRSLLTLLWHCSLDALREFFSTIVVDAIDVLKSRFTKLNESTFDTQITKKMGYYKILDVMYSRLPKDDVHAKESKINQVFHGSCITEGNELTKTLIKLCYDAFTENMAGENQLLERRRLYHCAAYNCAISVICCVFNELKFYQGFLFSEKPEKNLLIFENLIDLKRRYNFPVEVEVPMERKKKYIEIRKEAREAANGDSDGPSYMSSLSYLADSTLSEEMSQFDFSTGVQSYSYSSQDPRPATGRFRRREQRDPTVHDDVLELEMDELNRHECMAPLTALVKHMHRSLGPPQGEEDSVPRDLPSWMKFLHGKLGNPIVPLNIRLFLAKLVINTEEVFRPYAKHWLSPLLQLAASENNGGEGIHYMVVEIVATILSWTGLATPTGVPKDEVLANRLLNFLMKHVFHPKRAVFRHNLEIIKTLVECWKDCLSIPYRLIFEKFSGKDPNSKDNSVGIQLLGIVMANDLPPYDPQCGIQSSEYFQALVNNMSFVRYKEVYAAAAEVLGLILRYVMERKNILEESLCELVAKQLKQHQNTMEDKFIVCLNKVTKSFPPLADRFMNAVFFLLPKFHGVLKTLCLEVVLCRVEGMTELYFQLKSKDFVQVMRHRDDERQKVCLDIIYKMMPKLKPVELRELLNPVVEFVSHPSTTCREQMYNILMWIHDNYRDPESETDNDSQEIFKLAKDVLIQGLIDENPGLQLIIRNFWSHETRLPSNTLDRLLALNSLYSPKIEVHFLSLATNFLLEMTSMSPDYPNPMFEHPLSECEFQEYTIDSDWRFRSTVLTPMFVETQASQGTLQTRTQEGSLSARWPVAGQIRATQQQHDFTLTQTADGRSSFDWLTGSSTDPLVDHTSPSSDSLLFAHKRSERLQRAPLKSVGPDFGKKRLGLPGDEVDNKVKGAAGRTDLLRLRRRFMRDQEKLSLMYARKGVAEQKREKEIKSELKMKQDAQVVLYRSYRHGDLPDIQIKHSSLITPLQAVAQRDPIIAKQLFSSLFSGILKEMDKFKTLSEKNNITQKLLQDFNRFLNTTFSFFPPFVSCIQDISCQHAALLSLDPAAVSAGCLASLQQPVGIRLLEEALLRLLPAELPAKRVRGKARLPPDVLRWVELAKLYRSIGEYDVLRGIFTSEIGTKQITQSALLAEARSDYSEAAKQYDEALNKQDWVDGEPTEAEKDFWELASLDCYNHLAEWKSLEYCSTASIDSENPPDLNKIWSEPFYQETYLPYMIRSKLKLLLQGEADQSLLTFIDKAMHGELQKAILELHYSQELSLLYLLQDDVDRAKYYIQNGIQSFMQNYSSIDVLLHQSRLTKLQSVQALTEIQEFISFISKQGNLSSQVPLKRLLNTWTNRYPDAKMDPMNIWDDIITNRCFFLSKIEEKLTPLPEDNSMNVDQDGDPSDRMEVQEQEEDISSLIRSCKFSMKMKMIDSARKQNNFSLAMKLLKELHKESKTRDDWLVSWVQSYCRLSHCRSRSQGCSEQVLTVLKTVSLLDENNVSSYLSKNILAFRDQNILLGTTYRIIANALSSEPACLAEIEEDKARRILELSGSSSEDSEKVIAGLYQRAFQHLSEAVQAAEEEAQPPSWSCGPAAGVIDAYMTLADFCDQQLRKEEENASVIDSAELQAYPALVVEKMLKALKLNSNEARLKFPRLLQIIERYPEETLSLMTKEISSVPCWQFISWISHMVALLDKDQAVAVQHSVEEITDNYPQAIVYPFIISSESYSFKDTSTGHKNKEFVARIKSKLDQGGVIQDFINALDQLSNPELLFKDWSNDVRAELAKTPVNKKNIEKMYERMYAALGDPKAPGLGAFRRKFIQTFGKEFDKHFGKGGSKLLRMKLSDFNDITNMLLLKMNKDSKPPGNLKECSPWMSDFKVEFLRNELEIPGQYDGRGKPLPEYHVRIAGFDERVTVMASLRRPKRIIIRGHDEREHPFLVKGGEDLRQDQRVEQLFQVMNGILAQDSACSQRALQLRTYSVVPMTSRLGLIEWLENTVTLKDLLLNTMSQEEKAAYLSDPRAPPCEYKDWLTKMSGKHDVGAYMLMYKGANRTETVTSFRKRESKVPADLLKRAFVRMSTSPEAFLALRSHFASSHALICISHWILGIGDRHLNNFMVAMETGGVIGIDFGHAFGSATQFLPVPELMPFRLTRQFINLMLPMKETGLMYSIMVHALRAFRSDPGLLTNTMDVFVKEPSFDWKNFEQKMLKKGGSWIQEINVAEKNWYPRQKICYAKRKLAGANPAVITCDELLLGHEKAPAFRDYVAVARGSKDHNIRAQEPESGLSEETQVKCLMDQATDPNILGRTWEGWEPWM
- Test details: kinobeads assay, DNA-PK
- Format: binding
- Measurement context: Further Kinobeads Data; read-out: DNAPK
Structures can show the parent of a compound that is named as a salt.
Readout: IC50

For orientation, consider the following solved cases.
[[record]]
molecule = "CC(C)C(=O)N1Cc2nc(-c3ccc(NC(=O)NC4CC4)cc3F)nc(N3CCOC[C@@H]3C)c2C1 [Example 174]"
target = "DNA-dependent protein kinase (DNA-PK) (Homo sapiens, UniProt P78527)"
value_observed = "> 10 µM"

[[record]]
molecule = "CCNC(=O)Nc1ccc(-c2nc3c(c(N4CCOC[C@@H]4C)n2)CN(C(C)=O)C3)c(F)c1 [Example 157]"
target = "DNA-dependent protein kinase (DNA-PK) (Homo sapiens, UniProt P78527)"
value_observed = "> 10 µM"

[[record]]
molecule = "C[C@H]1COCCN1c1nc(-c2ccc(NC(=O)NC3CC3)cc2F)nc2c1CCNC2 [Example 163]"
target = "DNA-dependent protein kinase (DNA-PK) (Homo sapiens, UniProt P78527)"
value_observed = "> 10 µM"


List reported IC50 for each of these molecules:
1. CCNC(=O)Nc1cc(F)c(-c2nc3c(c(N4CCOC[C@@H]4C)n2)CN(C(=O)OCC)C3)c(F)c1 [Example 142]
2. CCOC(=O)N1Cc2nc(-c3ccc(NC(=O)NC4CC4)cc3F)nc(N3CCOCC3)c2C1 [Example 156]
3. COC(=O)N1Cc2nc(-c3ccc(NC(=O)NCCF)cc3F)nc(N3CCOC[C@@H]3C)c2C1 [Example 183]
4. C[C@H]1COCCN1c1nc(-c2ccc(NC(=O)NC3CC3)cc2F)nc2c1CN(C(=O)N(C)C)C2 [Example 178]

Response given:
> 10 µM
> 10 µM
> 10 µM
> 10 µM

List reported IC50 for each of these molecules:
1. CCNC(=O)Nc1ccc(-c2nc3c(c(N4CCOCC4)n2)CN(C(=O)OCC)C3)c(F)c1 [Example 151]
2. CCNC(=O)Nc1ccc(-c2nc3c(c(N4CCOC[C@@H]4C)n2)CCN(C(=O)N(C)C)C3)c(F)c1 [Example 176]
3. CCOC(=O)N1Cc2nc(-c3ccc(NC(=O)NCCF)cc3F)nc(N3CCOCC3)c2C1 [Example 170]
4. C[C@H]1COCCN1c1nc(-c2ccc(NC(=O)NC3CC3)cc2F)nc2c1CNC2 [Example 149, hydrochloride]
5. CN1Cc2nc(-c3ccc(NC(=O)NC4CC4)cc3F)nc(N3CCOCC3)c2C1 [Example 159]
6. CCOC(=O)N1Cc2nc(-c3ccc(NC(=O)NCCO)cc3F)nc(N3CCOC[C@@H]3C)c2C1 [Example 167]

Response given:
> 10 µM
1 to 10 µM
1 to 10 µM
> 10 µM
> 10 µM
> 10 µM

List reported IC50 for each of these molecules:
1. COC(=O)N1Cc2nc(-c3ccc(NC(=O)NC4CC4)cc3F)nc(N3CCOC[C@H]3C)c2C1 [Example 180]
2. C[C@@H]1COCCN1c1nc(-c2ccc(NC(=O)NC3CC3)cc2F)nc2c1CN(C(=O)C1CC1)C2 [Example 188]
3. CCNC(=O)Nc1ccc(-c2nc3c(c(N4CCOCC4)n2)CN(C(C)=O)C3)c(F)c1 [Example 161]

Response given:
1 to 10 µM
> 10 µM
> 10 µM

* * *

- Target: PI3 Kgamma (PI3 Kg) (Homo sapiens, UniProt P48736)
- Construct: endogenous in cells; host or cells: cell lysate
- Test details: kinobeads assay, PI3Kgamma
- Type: binding
- Measurement context: Further Kinobeads Data; read-out: PI3Kg
Where a name gives a salt, the structure may show the parent alone.
Would you kindly list IC50 for each of these molecules?

[[record]]
molecule = "CCNC(=O)Nc1ccc(-c2nc3c(c(N4CCOC[C@@H]4C)n2)CN(C)C3)c(F)c1F [Example 140]"
value_observed = "> 10 µM"

[[record]]
molecule = "C[C@H]1COCCN1c1nc(-c2ccc(NC(=O)NC3CC3)cc2F)nc2c1CN(S(C)(=O)=O)C2 [Example 177]"
value_observed = "> 10 µM"

[[record]]
molecule = "CC(C)NC(=O)N1CCc2c(nc(-c3ccc(NC(=O)NC4CC4)cc3F)nc2N2CCOC[C@@H]2C)C1 [Example 189]"
value_observed = "> 10 µM"

[[record]]
molecule = "CC(C)N1Cc2nc(-c3ccc(NC(=O)NCCO)cc3F)nc(N3CCOCC3)c2C1 [Example 184]"
value_observed = "> 10 µM"

[[record]]
molecule = "CCNC(=O)Nc1ccc(-c2nc3c(c(N4CCOC[C@@H]4C)n2)CNC3)c(F)c1.Cl [Example 158, hydrochloride]"
value_observed = "> 10 µM"

[[record]]
molecule = "C[C@H]1COCCN1c1nc(-c2ccc(NC(=O)NC3CC3)cc2F)nc2c1CN(C(=O)N(C)C)C2 [Example 178]"
value_observed = "> 10 µM"

[[record]]
molecule = "CCNC(=O)Nc1ccc(-c2nc3c(c(N4CCOC[C@@H]4C)n2)CN(C(C)=O)C3)c(F)c1 [Example 157]"
value_observed = "> 10 µM"

[[record]]
molecule = "CC(C)N1Cc2nc(-c3ccc(NC(=O)NCCF)cc3F)nc(N3CCOCC3)c2C1 [Example 185]"
value_observed = "> 10 µM"


List reported IC50 for each of these molecules:
1. C[C@@H]1COCCN1c1nc(-c2ccc(NC(=O)NC3CC3)cc2F)nc2c1CN(C(=O)OC(C)(C)C)C2 [Example 182]
2. C[C@H]1COCCN1c1nc(-c2ccc(NC(=O)NC3CC3)cc2F)nc2c1CNC2 [Example 149, hydrochloride]
3. CCNC(=O)Nc1ccc(-c2nc3c(c(N4CCOC[C@@H]4C)n2)CN(C(=O)OC(C)(C)C)C3)c(F)c1 [Example 153]
4. C[C@@H]1COCCN1c1nc(-c2ccc(NC(=O)NC3CC3)cc2F)nc2c1CN(C=O)C2 [Example 190]
5. CN1Cc2nc(-c3ccc(NC(=O)NC4CC4)cc3F)nc(N3CCOCC3)c2C1 [Example 159]
6. C[C@H]1COCCN1c1nc(-c2ccc(NC(=O)NC3CC3)cc2F)nc2c1CN(C)C2 [Example 147]
7. CCNC(=O)Nc1ccc(-c2nc3c(c(N4CCOCC4)n2)CN(C)C3)c(F)c1 [Example 154]

Response given:
> 10 µM
> 10 µM
> 10 µM
> 10 µM
> 10 µM
> 10 µM
> 10 µM

List reported IC50 for each of these molecules:
1. CC(C)N1Cc2nc(-c3ccc(NC(=O)NCCO)cc3F)nc(N3CCOC[C@@H]3C)c2C1 [Example 187]
2. CCNC(=O)Nc1c(F)cc(-c2nc3c(c(N4CCOC[C@@H]4C)n2)CN(C)C3)cc1F [Example 139]

Response given:
1: > 10 µM; 2: > 10 µM

Challenge: Form field: reported IC50 of C[C@@H]1COCCN1c1nc(-c2ccc(NC(=O)NC3CC3)cc2F)nc2c1CN(C(=O)C1CC1)C2 [Example 188]
Response given: > 10 µM

* * *

- Target: PI3 Kbeta (PI3 Kb) (Homo sapiens, UniProt P42338)
- Construct: endogenous in cells; host or cells: cell lysate
- Test details: kinobeads assay, PI3Kbeta
- Format: binding
- Measurement context: kinobeads assay, Table 6; read-out: Inhibition values (IC50) PI3Kb
pIC50: −log10 of the molar value.
Would you kindly list pIC50 for each of these compounds?

For orientation, consider the following solved cases.
[[record]]
compound = "CCNC(=O)Nc1ccc(-c2nc3c(c(N4CCOC[C@@H]4C)n2)CN(C(=O)c2ccc(F)cc2)C3)cc1 [Example 19]"
target = "PI3 Kbeta (PI3 Kb) (Homo sapiens, UniProt P42338)"
value_observed = "< 5.00"

[[record]]
compound = "CCNC(=O)Nc1ccc(-c2nc3c(c(N4CCOC[C@@H]4C)n2)CN(C(=O)OCC)C3)c(F)c1 [Example 113]"
target = "PI3 Kbeta (PI3 Kb) (Homo sapiens, UniProt P42338)"
value_observed = "< 5.00"

[[record]]
compound = "CCNC(=O)Nc1ccc(-c2nc3c(c(N4CCOCC4)n2)CN(C(C)=O)C3)cc1 [Example 99]"
target = "PI3 Kbeta (PI3 Kb) (Homo sapiens, UniProt P42338)"
value_observed = "5.00 to 6.00"


List reported pIC50 for each of these compounds:
1. CCNC(=O)Nc1ccc(-c2nc3c(c(N4CCOCC4)n2)CN(C(=O)C(C)(C)C)C3)cc1 [Example 100]
2. CCNC(=O)Nc1ccc(-c2nc3c(c(N4CCOC[C@@H]4C)n2)CCN(C(=O)C(C)(C)C)C3)cc1 [Example 58]
3. CCOC(=O)N1Cc2nc(-c3ccc(NC(=O)NCC(=O)NC)cc3)nc(N3CCOC[C@@H]3C)c2C1 [Example 125]
4. CCNC(=O)Nc1ccc(-c2nc3c(c(N4CCOC[C@@H]4C)n2)CCN(C(=O)c2ccc(F)cc2)C3)cc1 [Example 24]

Response given:
1. < 5.00
2. < 5.00
3. 5.00 to 6.00
4. < 5.00
